Where do these numbers come from? They come from ChEMBL document CHEMBL5104219.

biological target: Cannabinoid receptor 2 (Homo sapiens, UniProt P34972); assay: Agonist activity at human CB2 receptor expressed in CHO cells assessed as inhibition of accumulation of forskolin-stimulated cAMP level incubated for 35 mins by chemiluminescence based assay; assay type: functional, cell-based
Sequence (P34972 whole entry): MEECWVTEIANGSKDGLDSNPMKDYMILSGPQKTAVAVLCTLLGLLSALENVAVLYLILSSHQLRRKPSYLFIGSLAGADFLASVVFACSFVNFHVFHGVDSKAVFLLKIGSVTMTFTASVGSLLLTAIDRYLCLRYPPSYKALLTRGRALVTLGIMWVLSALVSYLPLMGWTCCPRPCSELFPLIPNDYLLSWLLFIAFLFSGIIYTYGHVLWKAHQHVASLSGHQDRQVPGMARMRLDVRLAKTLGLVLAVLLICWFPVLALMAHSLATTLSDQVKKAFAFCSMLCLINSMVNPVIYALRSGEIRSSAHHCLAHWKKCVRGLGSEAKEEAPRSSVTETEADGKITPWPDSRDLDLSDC

{"columns": ["MOL SMILES", "STUDY SYSTEM", "EC50 / nM"],
 "data": [
  ["CC(C)(CO)c1cc(NC(=O)N2CCCN2c2ccc(C(F)(F)F)cc2)on1", "Cannabinoid receptor 2 (Homo sapiens, UniProt P34972)", 42.7]
]}
